Target: human KDR (VEGFR2) on cells (human, UniProt P35968 20-1356)
Sequence (P35968 20-1356): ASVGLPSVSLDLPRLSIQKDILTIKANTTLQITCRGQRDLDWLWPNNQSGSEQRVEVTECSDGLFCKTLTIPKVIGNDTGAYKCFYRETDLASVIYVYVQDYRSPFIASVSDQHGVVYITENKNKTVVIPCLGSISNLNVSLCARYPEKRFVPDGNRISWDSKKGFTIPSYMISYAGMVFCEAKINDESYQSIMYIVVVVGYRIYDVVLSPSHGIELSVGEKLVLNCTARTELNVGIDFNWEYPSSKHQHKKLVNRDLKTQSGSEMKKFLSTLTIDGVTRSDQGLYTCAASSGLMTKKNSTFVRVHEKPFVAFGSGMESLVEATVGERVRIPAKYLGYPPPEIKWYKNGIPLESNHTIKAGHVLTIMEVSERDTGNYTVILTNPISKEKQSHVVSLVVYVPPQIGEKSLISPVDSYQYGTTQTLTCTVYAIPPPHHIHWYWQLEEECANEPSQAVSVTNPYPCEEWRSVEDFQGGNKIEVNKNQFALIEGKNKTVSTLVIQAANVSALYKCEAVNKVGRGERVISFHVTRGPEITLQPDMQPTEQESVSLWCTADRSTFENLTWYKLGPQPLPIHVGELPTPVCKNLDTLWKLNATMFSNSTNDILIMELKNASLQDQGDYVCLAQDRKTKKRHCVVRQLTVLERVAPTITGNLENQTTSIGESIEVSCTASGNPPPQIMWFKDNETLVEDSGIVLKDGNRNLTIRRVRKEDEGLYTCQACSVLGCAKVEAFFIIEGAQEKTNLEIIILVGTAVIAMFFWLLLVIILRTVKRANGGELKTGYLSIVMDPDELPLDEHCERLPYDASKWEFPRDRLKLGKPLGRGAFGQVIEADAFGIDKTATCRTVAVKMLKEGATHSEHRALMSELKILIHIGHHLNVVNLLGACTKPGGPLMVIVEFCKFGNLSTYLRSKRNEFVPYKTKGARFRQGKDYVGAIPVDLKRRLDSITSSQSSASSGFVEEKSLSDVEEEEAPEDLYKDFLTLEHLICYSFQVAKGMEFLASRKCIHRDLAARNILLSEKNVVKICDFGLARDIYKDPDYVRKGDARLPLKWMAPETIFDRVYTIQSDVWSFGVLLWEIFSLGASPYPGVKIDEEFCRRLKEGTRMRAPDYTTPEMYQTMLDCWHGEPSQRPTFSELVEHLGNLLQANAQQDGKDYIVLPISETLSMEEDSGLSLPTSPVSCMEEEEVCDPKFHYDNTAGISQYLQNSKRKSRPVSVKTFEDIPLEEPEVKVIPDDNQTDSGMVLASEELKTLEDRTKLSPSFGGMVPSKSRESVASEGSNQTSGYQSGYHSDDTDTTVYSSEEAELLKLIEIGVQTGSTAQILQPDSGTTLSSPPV
Test: cell-based or functional assay
reportedMetric: HUVEC survival (n = 1) 1:10 dilution of supernatant (RLU)

binder	unitsOfMeasure	experimentalValue
anti-KDR monoclonal antibody 30D7 (antibody, V domains shown, Fully human mAb from XenoMouse (IgG2 or IgG4 strain); hybridoma supernatant) VH: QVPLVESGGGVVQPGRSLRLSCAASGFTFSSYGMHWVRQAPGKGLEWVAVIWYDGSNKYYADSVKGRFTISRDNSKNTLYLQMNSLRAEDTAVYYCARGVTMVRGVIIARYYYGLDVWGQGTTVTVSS VL: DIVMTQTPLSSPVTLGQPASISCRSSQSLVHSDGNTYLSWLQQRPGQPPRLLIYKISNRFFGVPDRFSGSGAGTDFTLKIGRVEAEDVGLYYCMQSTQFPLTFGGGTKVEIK	RLU	28300
anti-KDR monoclonal antibody 24C9 (antibody, V domains shown, Fully human mAb from XenoMouse (IgG2 or IgG4 strain); hybridoma supernatant) VH: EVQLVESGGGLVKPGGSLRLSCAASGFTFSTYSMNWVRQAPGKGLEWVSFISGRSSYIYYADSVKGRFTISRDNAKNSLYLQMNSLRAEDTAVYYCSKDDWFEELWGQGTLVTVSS VL: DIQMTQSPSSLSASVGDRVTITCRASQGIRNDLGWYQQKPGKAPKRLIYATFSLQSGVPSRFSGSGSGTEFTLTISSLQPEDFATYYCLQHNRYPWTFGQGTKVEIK	RLU	14600
